Value source: ChEMBL document CHEMBL4321873

Experiment: AUC (0 to 24 hrs) in Wistar Han rat at 10 mg/kg, po administered twice daily for 7 days by LC-MS/MS analysis
Assay type: ADME, organism-based
Set-up: dose 10 mg/kg, time < 24 hr, route oral
Conditions: in vivo
MEASUREMENT_KIND: AUC at 24 h (ng·h/mL)
Express the result in ng·h/mL but write the number alone.

Lookup result for COCCS(=O)(=O)Nc1cc(-c2cc3c(c(OC[C@H]4CN(C5COC5)CCO4)c2)COC3)cnc1OC ; measured AUC at 24 h: 12600

----------
Assay: Oral bioavailability in Wistar Han rat at 1 mg/kg by LC-MS/MS analysis
Format: ADME, organism-based
Details: in vivo
For each of the compounds below, state its bioavailability.
Express the result in % but write the number alone.

Lookup result for COc1ncc(-c2cc3c(c(OCCN4CCC(C(C)(C)O)CC4)c2)COC3)cc1NS(C)(=O)=O ; measured bioavailability: 32

Lookup result for COCCS(=O)(=O)Nc1cc(-c2cc3c(c(OC[C@H]4CN(C5COC5)CCO4)c2)COC3)cnc1OC ; measured bioavailability: 84

----------
For each of the compounds below, state its Intrinsic clearance (CLint).
Assay: Intrinsic clearance in rat hepatocytes at 0.5 uM measured after 10 mins by LC-MS/MS analysis
Assay type: ADME, cell-based, Hepatocyte

Lookup result for COc1ncc(-c2cc3c(c(OCCN4CCC(C(C)(C)O)CC4)c2)COC3)cc1NS(C)(=O)=O ; measured Intrinsic clearance (CLint): 2.5 mL/min/g

Lookup result for COCCS(=O)(=O)Nc1cc(-c2cc3c(c(OCCN4CCC(C(C)(C)O)CC4)c2)CCOC3)cnc1OC ; measured Intrinsic clearance (CLint): < 0.9 mL/min/g

Lookup result for COCCS(=O)(=O)Nc1cc(-c2cc3c(c(OC[C@H]4CN(C5COC5)CCO4)c2)COC3)cnc1OC ; measured Intrinsic clearance (CLint): 1.2 mL/min/g

Lookup result for COc1ncc(-c2cc(OCCN3CCC(C(C)(C)O)CC3)c3c(c2F)COC3)cc1NS(C)(=O)=O ; measured Intrinsic clearance (CLint): 4.5 mL/min/g

Lookup result for COc1ncc(-c2cc(OCCN3CCC(C(C)(C)O)CC3)c3c(c2)[C@@H](C)OC3)cc1NS(C)(=O)=O ; measured Intrinsic clearance (CLint): 9.7 mL/min/g

Lookup result for COCCS(=O)(=O)Nc1cc(-c2cc3c(c(OCCN4CCC(C(C)(C)O)CC4)c2)COC3)cnc1OC ; measured Intrinsic clearance (CLint): 1.6 mL/min/g

----------
Assay: AUC (0 to 4 hrs) in Wistar Han rat at 300 mg/kg, po administered once daily for 7 days by LC-MS/MS analysis
Format: ADME, organism-based
Set-up: dose 300 mg/kg, time < 4 hr, route oral
Settings: in vivo
MEASUREMENT_KIND: AUC at 4 h (ng·h/mL)
Express the result in ng·h/mL but write the number alone.

Lookup result for COc1ncc(-c2cc3c(c(OCCN4CCC(C(C)(C)O)CC4)c2)COC3)cc1NS(C)(=O)=O ; measured AUC at 4 h: 27500

----------
Experiment: AUC (0 to 24 hrs) in Wistar Han rat at 100 mg/kg, po administered twice daily for 7 days by LC-MS/MS analysis
Format: ADME, organism-based
Parameters: dose 100 mg/kg, time < 24 hr, route oral
Settings: in vivo
MEASUREMENT_KIND: AUC at 24 h

Lookup result for COCCS(=O)(=O)Nc1cc(-c2cc3c(c(OC[C@H]4CN(C5COC5)CCO4)c2)COC3)cnc1OC ; measured AUC at 24 h: 114 µg·h/mL
